B1: Far upstream element-binding protein 2, residues 142 to 214; numbered along this chain, Q92945 (parent)
chain: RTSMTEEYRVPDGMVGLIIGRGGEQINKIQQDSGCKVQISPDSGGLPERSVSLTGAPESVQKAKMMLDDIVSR

- Variants of: B1
- experiment_notes: abundance fitness (aPCA) (normalised: wild type 0, dead -1); higher = more abundant; growth selection in yeast, the domain comes from the species named
- settings: Homo sapiens
Kindly state abundance fitness for each of the entries shown.
Please state the value as a number alone, without comment.

// sample G22D , its abundance fitness was -0.027

// sample I29R , its abundance fitness was -0.995

// sample M66I , its abundance fitness was -0.254

// sample D68F , its abundance fitness was -0.469

// sample Q30G , its abundance fitness was -0.24

// sample S52C , its abundance fitness was 0.027

// sample R73T , its abundance fitness was 0.124

// sample I70V , its abundance fitness was -0.059

// sample C35G , its abundance fitness was -0.756

// sample C35Q , its abundance fitness was -0.791

// sample G44W , its abundance fitness was -0.338

// sample C35Y , its abundance fitness was -0.847

// sample L46S , its abundance fitness was 0.004

// sample L53A , its abundance fitness was -0.817

// sample D42F , its abundance fitness was -0.163

// sample R21G , its abundance fitness was -0.043

// sample Q61M , its abundance fitness was -0.051

// sample K62I , its abundance fitness was -0.126

// sample S59N , its abundance fitness was -0.062

// sample N27G , its abundance fitness was -0.137

// sample L46G , its abundance fitness was 0.07

// sample Q30T , its abundance fitness was -0.17

// sample I29W , its abundance fitness was -0.981

// sample L46N , its abundance fitness was -0.144

// sample K36A , its abundance fitness was -0.082

// sample S72V , its abundance fitness was -0.085

// sample P47M , its abundance fitness was -0.009

// sample R21M , its abundance fitness was -0.002

// sample D68E , its abundance fitness was -0.06

// sample G55R , its abundance fitness was -0.965

// sample S43H , its abundance fitness was -0.113

// sample S43P , its abundance fitness was -0.083

// sample P47Y , its abundance fitness was -0.028

// sample S40E , its abundance fitness was -0.013

// sample S33T , its abundance fitness was -0.006

// sample E58T , its abundance fitness was -0.174

// sample G20H , its abundance fitness was -0.576
